Source: PubChem BioAssay AID602438

As shown below, each of these compounds has a reported inhibition value.
# targetOrSystem: Neuropilin-1 (Homo sapiens) (UniProt O14786)
# Sequence (O14786 whole entry, looked up): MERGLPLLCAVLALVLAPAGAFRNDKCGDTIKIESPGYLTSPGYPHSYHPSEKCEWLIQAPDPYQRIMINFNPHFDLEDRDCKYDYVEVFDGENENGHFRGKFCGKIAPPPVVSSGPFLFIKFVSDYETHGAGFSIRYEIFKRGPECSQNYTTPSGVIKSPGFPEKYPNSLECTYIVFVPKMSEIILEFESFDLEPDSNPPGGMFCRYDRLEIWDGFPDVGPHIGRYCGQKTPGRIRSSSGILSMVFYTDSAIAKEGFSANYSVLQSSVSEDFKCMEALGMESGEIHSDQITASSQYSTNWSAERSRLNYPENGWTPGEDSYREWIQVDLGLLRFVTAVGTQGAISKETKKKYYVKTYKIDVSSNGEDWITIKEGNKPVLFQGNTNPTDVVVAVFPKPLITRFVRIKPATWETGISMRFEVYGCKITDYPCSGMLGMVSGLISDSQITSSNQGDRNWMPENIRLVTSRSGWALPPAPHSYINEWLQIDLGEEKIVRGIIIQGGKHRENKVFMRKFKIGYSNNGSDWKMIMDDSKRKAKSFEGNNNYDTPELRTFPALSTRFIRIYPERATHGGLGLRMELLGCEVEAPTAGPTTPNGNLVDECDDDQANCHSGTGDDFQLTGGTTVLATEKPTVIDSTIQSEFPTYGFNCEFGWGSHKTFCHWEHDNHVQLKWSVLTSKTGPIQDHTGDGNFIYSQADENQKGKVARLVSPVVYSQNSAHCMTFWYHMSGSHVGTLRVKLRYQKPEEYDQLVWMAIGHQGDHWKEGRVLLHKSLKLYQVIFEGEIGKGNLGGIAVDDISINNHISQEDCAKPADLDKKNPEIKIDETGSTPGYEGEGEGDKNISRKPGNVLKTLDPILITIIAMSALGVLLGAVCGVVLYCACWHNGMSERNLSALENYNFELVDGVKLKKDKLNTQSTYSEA
# assayProcedure: NRP-1/CendR peptide interaction modulators – biochemical, fluorescence polarization, uHTS, primary screen (AID 602438)
# assayContext: FAM-RPARPAR peptide binding to NRP-1, fluorescence polarization; at 25 µM; stronger effect = higher value
About 3,100 (0.86%) of roughly 360,000 compounds were called active. Only a selection was taken, and actives are over-represented in it overall.
Give the quantity in %, number only.

These recorded examples may help you get a feel for the data.
- compound: "Cc1nc2ccc(C(=O)O)cc2[nH]1"
  targetOrSystem: "Neuropilin-1 (Homo sapiens) (UniProt O14786)"
  inhibition / %: 24.6
- compound: "O=C(C[n+]1cc(-c2ccc(Cl)c(Cl)c2)n2c1CCC2)c1cccs1"
  targetOrSystem: "Neuropilin-1 (Homo sapiens) (UniProt O14786)"
  inhibition / %: -11.8
- compound: "CCN(CC(=O)Nc1ccc(OC)cc1)C(=O)c1ccc(=O)n(Cc2ccccc2)n1"
  targetOrSystem: "Neuropilin-1 (Homo sapiens) (UniProt O14786)"
  inhibition / %: 4.7
- compound: "COC(=O)C1CCN(C(=O)c2ccc3oc(Cc4ccc(Cl)cc4)nc3c2)CC1"
  targetOrSystem: "Neuropilin-1 (Homo sapiens) (UniProt O14786)"
  inhibition / %: 8.2
- compound: "O=C(NC(=O)c1ccccc1N1CCCCC1)Nc1ccc(Br)cc1"
  targetOrSystem: "Neuropilin-1 (Homo sapiens) (UniProt O14786)"
  inhibition / %: 5.9

Here's the next entry for you.
Prompt: State its inhibition on Neuropilin-1 (Homo sapiens) (UniProt O14786): CCOc1ccc(CCNC(=O)CSc2cc(=O)n(C)c3ccc(Cl)cc23)cc1OCC
Completion: 4.1
